tested-system: hCB2 (Homo sapiens, UniProt P34972)
Sequence (P34972 whole entry): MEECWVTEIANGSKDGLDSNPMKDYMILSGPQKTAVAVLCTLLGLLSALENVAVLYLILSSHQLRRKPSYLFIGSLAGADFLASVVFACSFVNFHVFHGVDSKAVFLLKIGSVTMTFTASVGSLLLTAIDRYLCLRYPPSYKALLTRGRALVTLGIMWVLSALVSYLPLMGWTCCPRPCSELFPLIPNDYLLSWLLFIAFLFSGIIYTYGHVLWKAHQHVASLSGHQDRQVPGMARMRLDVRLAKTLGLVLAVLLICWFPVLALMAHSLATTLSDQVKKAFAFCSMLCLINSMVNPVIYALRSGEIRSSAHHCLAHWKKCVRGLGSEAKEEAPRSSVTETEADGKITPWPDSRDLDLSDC
method-summary: In vitro binding assay using hCB2-CHO membranes, [3H]-CP-55,940 displacement (Protocol IV)
Set-up: expressed in transfected cells; host or cells: CHO (hCB2-CHO, generated in-house)
experimental-context: 1 h; hCB2-CHO membranes, [3H]-CP-55,940 displacement; read-out: % Displacement Protocol IV
Assign inhibition at 0.3 µM to each entry below.
# output: bare number, implied unit %

response.value for CC(C)(NC(=O)c1nn(-c2ccc(F)cc2F)c2c1C1CC3CC(C1)CC2C3)c1ccccc1Cl (field: inhibition at 0.3 µM) = 99.5

response.value for CC(C)(C)NC(=O)C1C2=C(NN1Cc1ccc(F)cc1)C1CCC2C1 (centres unmarked) [Example 335b] (field: inhibition at 0.3 µM) = 8.7

response.value for O=C(NNc1ccc(Cl)cc1Cl)c1nn(-c2ccc(Cl)cc2Cl)c2c1C1CCC2C1 (centres unmarked) (field: inhibition at 0.3 µM) = 80.2

response.value for O=C(N[C@H](CO)c1ccc(F)cc1)c1nn(-c2ccc(F)cc2F)c2c1C1CCC2C1 (some centres unmarked) (field: inhibition at 0.3 µM) = 70.1

response.value for COc1ccc(-n2nc(C(=O)NNc3ccc(Cl)cc3Cl)c3c2C2CC4CC(CC3C4)C2)cc1 (field: inhibition at 0.3 µM) = 45.3

response.value for O=C(NCc1ccncc1)c1nn(-c2ccc(Cl)cc2)c2c1C1CC3CC(C1)CC2C3 (field: inhibition at 0.3 µM) = 22.4

response.value for O=C(NN(C1CCCCC1)C1CCCCC1)c1nn(-c2ccc(Cl)cc2Cl)c2c1C1CCC2C1 (centres unmarked) (field: inhibition at 0.3 µM) = 77.1

response.value for O=C(NNc1ccccc1Cl)c1nn(-c2ccc(Cl)cc2)c2c1C1CC3CC(C1)CC2C3 (field: inhibition at 0.3 µM) = 47.6

====

tested-system: hCB2 (Homo sapiens, UniProt P34972)
method-summary: Antagonism of CB2 receptors expressed in CHO cells, cAMP assay against CP 55,940 (Protocol IX.1)
Format: cell-based
Parameters: expressed in transfected cells; host or cells: CHO (h-CB2/CHO, G418-selected)
experimental-context: CHO, h-CB2/CHO cells, vs 10 nM CP 55,940
Method: IX. Assay for Determining Agonist and Antagonist Activity to CB1 and CB2 Receptors 1. Antagonism of CB1/CB2 Receptors Expressed in CHO Cells. h-CB1/CHO or h-CB2/CHO cells were grown in HAM's F12 DMEM medium (Sigma) with 10% FBS (Hyclone), 1% penicillin-streptomycin solution and 400 μg/ml of G418 (Sigma). […] EC50 values were calculated from dose response curves by nonlinear regression analysis using PRISM software.
Assign inhibition at 10 µM to each entry below.
# output: bare number, implied unit %

response.value for O=C(NCc1ccccc1)c1n[nH]c2c1C1CC3CC(CC2C3)C1 (field: inhibition at 10 µM) = 21

response.value for O=C(NNc1ccccc1Br)c1nn(-c2ccc(Cl)cc2Cl)c2c1C1CCC2C1 (centres unmarked) (field: inhibition at 10 µM) = 27.1

response.value for O=C(NC12CC3CC(CC(C3)C1)C2)c1nn(-c2ccc(Cl)cc2Cl)c2c1C1CCC2c2ccccc21 (centres unmarked) (field: inhibition at 10 µM) = 80.2

response.value for O=C(NNc1ccc(Cl)cc1Cl)c1nn(-c2ccc(Cl)cc2Cl)c2c1C1CCC2C1 (centres unmarked) (field: inhibition at 10 µM) = 34.8

response.value for O=C(NN(C1CCCCC1)C1CCCCC1)c1nn(-c2ccc(Cl)cc2Cl)c2c1C1CCC2C1 (centres unmarked) (field: inhibition at 10 µM) = 64.1

response.value for O=C(NNc1ccccc1Cl)c1nn(-c2ccc(Cl)cc2Cl)c2c1C1CCC2C1 (centres unmarked) (field: inhibition at 10 µM) = 37.5

response.value for O=C(NCc1ccccc1Cl)c1nn(-c2ccc(Cl)cc2)c2c1C1CCC2C1 (centres unmarked) (field: inhibition at 10 µM) = 30.1

response.value for O=C(NC1CCCCC1)c1nn(-c2ccc(Br)cc2)c2c1C1CCC2C1 (centres unmarked) (field: inhibition at 10 µM) = 19.1

response.value for CCCCCNC(=O)c1nn(-c2ccc(F)cc2F)c2c1C1CCC2C1 (centres unmarked) (field: inhibition at 10 µM) = 14.4

response.value for O=C(Nc1ccc(F)cc1F)c1nn(-c2ccc(Cl)cc2Cl)c2c1C1CCC2C1 (centres unmarked) (field: inhibition at 10 µM) = 25.3

response.value for O=C(NNc1ccc(F)cc1F)c1nn(-c2ccc(Cl)cc2Cl)c2c1C1CCC2C1 (centres unmarked) (field: inhibition at 10 µM) = 27.2

response.value for O=C(NCC1CC1)c1nn(-c2ccc(F)cc2F)c2c1C1CCC2C1 (centres unmarked) (field: inhibition at 10 µM) = 22.9

response.value for CC(C)(C)NC(=O)c1nn(-c2ccc(F)cc2F)c2c1[C@@H]1CC[C@H]2C1 (single isomer, unassigned) (field: inhibition at 10 µM) = 51.6

response.value for O=C(NCc1ccc(Cl)cc1Cl)c1nn(-c2ccc(F)cc2F)c2c1C1CCC2C1 (centres unmarked) (field: inhibition at 10 µM) = 21.6

response.value for O=C(N[C@@H](CO)c1ccccc1)c1nn(-c2ccc(F)cc2F)c2c1C1CCC2C1 (some centres unmarked) (field: inhibition at 10 µM) = 22.5

response.value for CC(C)(C)NC(=O)c1nn(-c2ccc(F)cc2F)c2c1C1CCC2C1 (centres unmarked) (field: inhibition at 10 µM) = 17.6

response.value for O=C(NC1CCCCC1)c1nn(-c2ccccc2Cl)c2c1C1CCC2C1 (centres unmarked) (field: inhibition at 10 µM) = 16

====

tested-system: CB1 (Rattus norvegicus, UniProt P20272)
Sequence (P20272 whole entry): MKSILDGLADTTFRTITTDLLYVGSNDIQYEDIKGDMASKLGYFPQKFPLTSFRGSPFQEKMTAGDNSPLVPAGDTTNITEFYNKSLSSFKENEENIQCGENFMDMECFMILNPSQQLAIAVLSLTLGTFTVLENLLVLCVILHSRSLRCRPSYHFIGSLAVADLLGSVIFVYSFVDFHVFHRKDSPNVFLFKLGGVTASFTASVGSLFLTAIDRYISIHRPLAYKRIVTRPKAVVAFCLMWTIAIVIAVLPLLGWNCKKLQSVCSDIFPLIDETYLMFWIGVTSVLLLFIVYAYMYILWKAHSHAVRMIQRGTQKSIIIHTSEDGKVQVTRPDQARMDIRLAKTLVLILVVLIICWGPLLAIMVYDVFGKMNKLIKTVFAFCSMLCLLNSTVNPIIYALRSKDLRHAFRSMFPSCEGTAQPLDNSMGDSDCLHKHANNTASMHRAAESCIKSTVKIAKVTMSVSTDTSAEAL
method-summary: GTPγS binding assay, CB1 functional assay in rat cerebellar membrane (Protocol VIII)
Format: biochemical
Design: 10 μg rat cerebellum membrane; from tissue; host or cells: rat cerebellum membrane, prepared in-house
experimental-context: GTPγS binding, tested at 1 uM in presence of 1 μM WIN 55,212-2
Protocol: VIII. Protocol for GTPγS Binding Assay (CB1 Functional Assay in Rat Cerebellar Membrane) In this GTPγS binding assay, total, basal and nonspecific binding were determined. […] The radioactivity bound to the brain membrane was retained on the filter disks to which scintillation fluid was added (Microscint PS). Then plates were read for radioactive counts using a Beta Liquid Scintillation Counter (Packard Instruments, Ill., USA). […]
Assign % Inhibition of WIN-55212-2 induced stimulation to each entry below.
# output: bare number, implied unit %

response.value for O=C(NN(c1ccccc1)c1ccccc1)c1nn(-c2ccc(Cl)cc2Cl)c2c1C1CC3CC(C1)CC2C3 (field: % Inhibition of WIN-55212-2 induced stimulation) = 109.1

response.value for CN(NC(=O)c1nn(-c2ccc(Cl)cc2Cl)c2c1C1CCC2c2ccccc21)c1ccc(Cl)cc1Cl (centres unmarked) (field: % Inhibition of WIN-55212-2 induced stimulation) = 94.4

response.value for O=C(NCc1ccccc1)c1nn(-c2ccccc2)c2c1C1CC3CC(C1)CC2C3 (field: % Inhibition of WIN-55212-2 induced stimulation) = 80.3

response.value for CN(NC(=O)c1nn(-c2ccc(Cl)cc2)c2c1C1CC3CC(C1)CC2C3)c1ccc(Cl)cc1Cl (field: % Inhibition of WIN-55212-2 induced stimulation) = 100.2

response.value for O=C(NN(c1ccccc1)c1ccccc1)c1nn(-c2ccc(Cl)cc2)c2c1C1CCC2C1 (centres unmarked) (field: % Inhibition of WIN-55212-2 induced stimulation) = 83.0

====

tested-system: UniProt P34972
method-summary: Agonism of CB2 receptors expressed in CHO cells, forskolin cAMP assay (Protocol IX.2)
Assay type: cell-based
Set-up: expressed in transfected cells; host or cells: CHO (h-CB2/CHO, G418-selected)
experimental-context: h-CB2/CHO cells, cAMP; read-out: hCB2 Agonism IC50
Assign pIC50 to each entry below.
# log scale: pIC50 equals minus log10 of the concentration in mol/L

response.value for O=C(NCc1ccc(Cl)cc1Cl)c1nn(-c2ccc(F)cc2F)c2c1C1CCC2C1 (stereo not drawn) [Example 307] (field: pIC50) = 9.09

response.value for CCCCCNC(=O)c1nn(-c2ccc(F)cc2F)c2c1C1CCC2C1 (stereo not drawn) [Example 306] (field: pIC50) = 7.92

response.value for CC(C)(C)NC(=O)c1nn(-c2ccc(F)cc2F)c2c1C1CCC2(C)C1(C)C (stereo not drawn) [Example 408] (field: pIC50) = 7.79

response.value for CC(C)(C)NC(=O)c1nn(-c2ccc(F)cc2F)c2c1C1CCC2C1 (stereo not drawn) [Example 303] (field: pIC50) = 9.21

====

Assign melting point to each entry below.
# output: bare number, implied unit °C

response.value for O=C(NN1CCOCC1)c1nn(-c2ccc(Cl)cc2)c2c1C1CC3CC(C1)CC2C3 (field: melting point) = 220

response.value for O=C(NNc1ncccc1Cl)c1nn(-c2ccc(Cl)cc2Cl)c2c1C1CCC2C1 (stereo not drawn) (field: melting point) = 95

response.value for O=C(NC1CCCCC1)c1nn(-c2ccccc2Br)c2c1C1CCC2C1 (stereo not drawn) (field: melting point) = 178

response.value for O=C(NCc1ccccc1)c1nn(-c2ccc(Br)cc2)c2c1C1CCC2C1 (stereo not drawn) (field: melting point) = 89

Origin of measurements: patent US7923465B2
